Data origin, for the record: ChEMBL document CHEMBL1146243

Each entry below lists one item and its recorded pIC50 value.
- Test system: FM3A
- Test: Cytotoxicity in mouse FM3A cells after 48 hrs
- Type: functional, cell-based
pIC50: −log10 of the molar value.
Metric name: pIC50

- Molecule: "NCCCCNCCCNCCCCNC(=O)n1c2ccccc2c2ccccc21"
  Metric name: "pIC50"
  Obs value: 4.37
- Molecule: "NCCCNCCCCNCCCNC(=O)N1c2ccccc2Sc2ccccc21"
  Metric name: "pIC50"
  Obs value: 4.24
- Molecule: "NCCCCNCCCNCCCCNC(=O)N1c2ccccc2CCc2ccccc21"
  Metric name: "pIC50"
  Obs value: 3.77
- Molecule: "NCCCNCCCCNCCCNC(=O)n1c2ccccc2c2ccccc21"
  Metric name: "pIC50"
  Obs value: 4.50
- Molecule: "NCCCCNCCCNCCCCNC(=O)N1c2ccccc2C=Cc2ccccc21"
  Metric name: "pIC50"
  Obs value: 3.94
- Molecule: "NCCCNCCCCNCCCNC(=O)N1c2ccccc2CCc2ccccc21"
  Metric name: "pIC50"
  Obs value: 3.99
- Molecule: "NCCCCNCCCCNCCCCNC(=O)n1c2ccccc2c2ccccc21"
  Metric name: "pIC50"
  Obs value: 4.07
- Molecule: "NCCCCNCCCCNCCCCNC(=O)N1c2ccccc2Sc2ccccc21"
  Metric name: "pIC50"
  Obs value: 4.39
- Molecule: "NCCCCNCCCCNCCCCNC(=O)N1c2ccccc2C=Cc2ccccc21"
  Metric name: "pIC50"
  Obs value: 3.88
- Molecule: "NCCCCNCCCNCCCCNC(=O)N1c2ccccc2Sc2ccccc21"
  Metric name: "pIC50"
  Obs value: 4.49
- Molecule: "NCCCNCCCCNCCCNC(=O)N1c2ccccc2C=Cc2ccccc21"
  Metric name: "pIC50"
  Obs value: 4.01
- Molecule: "NCCCNCCCCNCCCNC(=O)c1ccc2c(c1)C(=O)c1ccccc1C2=O"
  Metric name: "pIC50"
  Obs value: 4.83
- Molecule: "NCCCCNCCCCNCCCCNC(=O)N1c2ccccc2CCc2ccccc21"
  Metric name: "pIC50"
  Obs value: 3.88
- Molecule: "CC12CC3CC(C)(C1)CC(N)(C3)C2 [MEMANTINE]"
  Metric name: "pIC50"
  Obs value: 3.83

---

- Experimental target: Glutamate NMDA receptor; GRIN1/GRIN2A (Homo sapiens, UniProt Q05586+Q12879)
- Sequence (Q12879 whole entry, other chains not shown): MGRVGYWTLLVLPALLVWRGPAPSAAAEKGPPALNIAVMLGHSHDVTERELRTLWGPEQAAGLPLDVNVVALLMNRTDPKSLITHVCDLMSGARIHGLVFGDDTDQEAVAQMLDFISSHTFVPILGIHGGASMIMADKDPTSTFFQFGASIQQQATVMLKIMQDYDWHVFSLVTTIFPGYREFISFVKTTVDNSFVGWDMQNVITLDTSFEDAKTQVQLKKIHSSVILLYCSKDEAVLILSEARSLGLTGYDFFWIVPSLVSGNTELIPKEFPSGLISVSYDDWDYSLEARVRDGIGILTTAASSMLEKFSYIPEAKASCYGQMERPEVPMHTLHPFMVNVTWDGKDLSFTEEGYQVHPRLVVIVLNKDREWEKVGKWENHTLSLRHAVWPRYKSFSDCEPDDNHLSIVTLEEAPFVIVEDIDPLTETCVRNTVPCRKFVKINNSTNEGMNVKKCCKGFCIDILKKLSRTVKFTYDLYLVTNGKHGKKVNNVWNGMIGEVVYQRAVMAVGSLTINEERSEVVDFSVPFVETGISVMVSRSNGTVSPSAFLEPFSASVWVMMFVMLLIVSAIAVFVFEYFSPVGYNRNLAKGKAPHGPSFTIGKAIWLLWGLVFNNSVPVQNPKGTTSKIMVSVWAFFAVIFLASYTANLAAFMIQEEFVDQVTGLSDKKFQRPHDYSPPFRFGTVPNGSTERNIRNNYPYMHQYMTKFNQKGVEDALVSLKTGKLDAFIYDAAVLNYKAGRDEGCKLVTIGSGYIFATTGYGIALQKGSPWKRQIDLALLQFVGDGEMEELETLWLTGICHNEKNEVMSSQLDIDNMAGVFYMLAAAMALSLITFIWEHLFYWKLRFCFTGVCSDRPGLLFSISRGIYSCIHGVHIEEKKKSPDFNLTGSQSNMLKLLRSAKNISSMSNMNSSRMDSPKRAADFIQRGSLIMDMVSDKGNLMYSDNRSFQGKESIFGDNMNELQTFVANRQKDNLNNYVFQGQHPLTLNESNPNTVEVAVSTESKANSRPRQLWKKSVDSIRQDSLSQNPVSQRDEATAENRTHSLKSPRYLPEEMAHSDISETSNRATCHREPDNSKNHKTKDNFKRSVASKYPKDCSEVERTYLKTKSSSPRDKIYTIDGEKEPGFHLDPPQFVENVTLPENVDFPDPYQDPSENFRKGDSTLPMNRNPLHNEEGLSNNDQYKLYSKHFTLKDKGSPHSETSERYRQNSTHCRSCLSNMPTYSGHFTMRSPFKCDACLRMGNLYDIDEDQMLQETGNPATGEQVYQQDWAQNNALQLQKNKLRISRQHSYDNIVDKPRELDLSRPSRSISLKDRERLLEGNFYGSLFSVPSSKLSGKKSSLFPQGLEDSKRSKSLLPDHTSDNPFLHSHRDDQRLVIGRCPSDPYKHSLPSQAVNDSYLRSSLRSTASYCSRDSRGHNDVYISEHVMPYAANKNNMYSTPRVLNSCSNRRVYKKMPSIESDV
- Test: Antagonist activity at recombinant NR1/NR2A receptor expressed in Xenopus laevis oocytes
- Type: functional, cell-based, Oocyte

- Compound structure: "NCCCCNCCCNCCCCNC(=O)N1c2ccccc2CCc2ccccc21"
  IC50, nM: 117
- Compound structure: "NCCCCNCCCNCCCCNC(=O)N1c2ccccc2Sc2ccccc21"
  IC50, nM: 78
- Compound structure: "NCCCNCCCCNCCCNC(=O)N1c2ccccc2CCc2ccccc21"
  IC50, nM: 958
- Compound structure: "NCCCCNCCCNCCCCNC(=O)n1c2ccccc2c2ccccc21"
  IC50, nM: 211
- Compound structure: "NCCCNCCCCNCCCNC(=O)N1c2ccccc2Sc2ccccc21"
  IC50, nM: 215
- Compound structure: "NCCCCNCCCCNCCCCNC(=O)N1c2ccccc2Sc2ccccc21"
  IC50, nM: 127
- Compound structure: "NCCCCNCCCNCCCCNC(=O)N1c2ccccc2C=Cc2ccccc21"
  IC50, nM: 198
- Compound structure: "NCCCNCCCCNCCCNC(=O)c1ccc2c(c1)C(=O)c1ccccc1C2=O"
  IC50, nM: 392
- Compound structure: "NCCCCNCCCCNCCCCNC(=O)n1c2ccccc2c2ccccc21"
  IC50, nM: 111
- Compound structure: "NCCCNCCCCNCCCNC(=O)N1c2ccccc2C=Cc2ccccc21"
  IC50, nM: 203
- Compound structure: "NCCCNCCCCNCCCNC(=O)n1c2ccccc2c2ccccc21"
  IC50, nM: 145
